# Tested Target: CRBN protein (Homo sapiens)
# Assay Info: Binding activity to E3 ubiquitin ligase CRBN (HTRF competitive binding kit, Thalidomide-Red)
# Protocol: Binding activity of the E3 ligase inhibitor disclosed in the present invention to E3 ubiquitin ligase CRBN CRBN binding activity test kit (CEREBLON BINDING KITS (PE, 64BD CRBN PEG). The detection is based on homogeneous time-resolved fluorescence (HTRF) technology. […] The ratio of the acceptor and donor emission signals was calculated for each individual well. IC50 values was calculated based on compound concentration, Ratio, and coefficient of variation using GraphPad Prism.
Threshold-based label: IC50 under 30 µM gives True, IC50 not under 30 µM gives False.

[
  {
    "Compound": "O=C1CC[C@H](NC(=O)c2cc3c(cc2F)OC2(CCNCC2)CC3)C(=O)N1",
    "Label": "True"
  },
  {
    "Compound": "COc1c(C(=O)N[C@H]2CCC(=O)NC2=O)ccc2c1OC[C@H]1CNCCN21",
    "Label": "False"
  },
  {
    "Compound": "O=C1CC[C@H](NC(=O)c2cc3c(cc2F)CCC2(CNC2)O3)C(=O)N1",
    "Label": "True"
  },
  {
    "Compound": "Cn1c(=O)n(C2CCC(=O)NC2=O)c2cc3c(cc21)OC1(CCNCC1)CC3 (centres unmarked)",
    "Label": "True"
  },
  {
    "Compound": "COc1cc2c(cc1C(=O)N[C@H]1CCC(=O)NC1=O)OC1(CCNCC1)CC2",
    "Label": "True"
  },
  {
    "Compound": "COc1cc2c(cc1C(=O)N[C@H]1CCC(=O)NC1=O)OCC[C@H]1CNCCN21",
    "Label": "True"
  },
  {
    "Compound": "O=C1CC[C@H](NC(=O)c2ccc3c(c2F)OC[C@H]2CNCCN32)C(=O)N1",
    "Label": "False"
  },
  {
    "Compound": "COc1cc2c(cc1C(=O)N[C@H]1CCC(=O)NC1=O)OC[C@H]1CNCCN21",
    "Label": "True"
  }
]
